System: Staphylococcus FK 422
Test: MIC agar dilution test, Staphylococcus FK 422
Assay type: cell-based
Conditions: agar dilution test/isosensitest agar, unit assumed
Listing of entries alongside the reported MIC values.

[[record]]
molecule = "COc1ccc(C2CN(c3cc4c(cc3F)c(=O)c(C(=O)O)cn4C3CC3)CCN2)cc1 (stereo not drawn) [Example 5]"
readout_value = "0.06 µg/mL"

[[record]]
molecule = "O=C(O)c1cn(C2CC2)c2cc(N3CCNC(c4cccs4)C3)c(F)cc2c1=O (stereo not drawn) [Example 12]"
readout_value = "0.06 µg/mL"


Next:
Asked: Query the reported MIC values for Staphylococcus FK 422; item: O=C(O)c1cn(C2CC2)c2cc(N3CCNC(c4ccc(Cl)cc4)C3)c(F)cc2c1=O (stereo not drawn) [Example 3]
Given back: 0.06 µg/mL

Data origin, for the record: patent US4599334A
